Tested on: SF-295 CNS
Assay: NCI-60 one-dose screen, 48 h (100 = growth as untreated, 0 = no growth, -100 = all killed)
Details: 10 µM unless noted
This is part of a sample that, as a whole, favours compounds with a hit. Of some 83,000 tested, about 20% had one in any assay.
Threshold 40%: growth strictly smaller gives condition met, otherwise condition not met.

# Molecule, Qualitative Label
rows = [
    ("CCCOc1cc2ccccc2cc1C(=O)Nc1nc(N)c2c(ccc3nccc32)[nH]1", "condition met"),
    ("COc1cc(-c2nn(-c3ccc(C(=O)O)cc3)cc2C(=O)O)ccc1O", "condition not met"),
    ("O=C(N=Nc1c(O)[nH]c2ccccc12)c1cc(-c2ccccc2)on1", "condition not met"),
    ("COC(=O)[C@]12CCC(C)(C)C[C@H]1[C@H]1C(=O)C[C@@H]3[C@@]4(C)c5c([nH]c6ccccc6c5=O)C(C)(C)[C@@H]4CC[C@@]3(C)[C@]1(C)CC2", "condition met"),
    ("O=C1Nc2c(ccc(Cl)c2Cl)/C1=C\\c1cc(C(F)(F)F)cc(C(F)(F)F)c1", "condition met"),
    ("COc1ccc2nc(NC(=O)CSc3nnc4n3S(=O)(=O)c3ccccc3N4c3ccccc3)sc2c1", "condition not met"),
    ("FC(F)(F)c1[nH]ncc1-c1nc2ccc3n[nH]c(C#Cc4cccnc4)c3c2c2c1CCCC2", "condition not met"),
    ("OCC(O)c1nc2ccc3[nH]ncc3c2c2c1CCCC2 (centres undefined)", "condition met"),
    ("CCN(CC)S(=O)(=O)c1ccc(OC)c(NC(=O)c2[nH]c(C)c3c2CCCCC3=O)c1", "condition met"),
    ("CSc1nc(NCCN2CCOCC2)c(C#N)c(-c2cccc([N+](=O)[O-])c2)n1", "condition not met"),
    ("Cc1cc(N2CCN(c3ccnc4cc(Cl)ccc34)CC2)nc(NC2CCCCC2)n1", "condition met"),
    ("COc1ccc(-c2n[nH]nc2-c2csc3ccccc23)cc1OC", "condition met"),
    ("COc1ccc(S(=O)(=O)N2CCCCC2)cc1NC(=O)c1[nH]c(C)c2c1CCCCC2=O", "condition met"),
    ("CN1CCN=C1c1ccc(NC(=O)c2ccc(C(=O)Nc3ccc(C4=NCCN4C)cc3)cc2)cc1", "condition not met"),
    ("O=C(COc1ccc(/C=C2\\COc3ccccc3C2=O)cc1)Nc1nccs1", "condition not met"),
    ("Cc1ccc(NC(=O)C2CCC(CN3CCN(C)CC3)CC2)cc1Nc1nccc(-c2cccnc2)n1 (centres undefined)", "condition not met"),
    ("COc1ccc(C(=O)c2sc3nc4c(c(-c5cccnc5)c3c2N)CCCC4)cc1OC", "condition not met"),
    ("CNC(=O)c1cc(Oc2ccc(NC(=O)Nc3ccc(Cl)c(OC(F)(F)F)c3)c(F)c2)ccn1", "condition met"),
    ("Cc1cc(N2CCOCC2)nc(NCc2cc(Nc3ccnc4cc(Cl)ccc34)ccc2F)n1", "condition met"),
    ("O=C(O)c1ccc(NC(=O)c2ccc(-c3cccc([N+](=O)[O-])c3)o2)cc1", "condition not met"),
    ("Cn1cc(C(=O)c2nc(-c3c[nH]c4ccc(F)cc34)no2)c2cc(F)ccc21", "condition not met"),
    ("CC/C=C\\C[C@H]1C/C=C2/C(=O)C=C[C@H]2C/C=C\\CCCC(=O)O1", "condition met"),
    ("Cc1cc(N[C@@H]2CCC[C@H](Nc3ccnc4cc(Cl)ccc34)C2)nc(N2CCCCCC2)n1", "condition met"),
    ("COc1ccc(CN2c3ccccc3Oc3ccccc32)cc1O", "condition met"),
    ("O=C(CN1C(=O)/C(=C/c2ccc(Cl)cc2)SC1=S)NCCCN1CCOCC1", "condition not met"),
    ("CSc1nc(Nc2cccc(NC(=O)/C(C#N)=C/c3c(Cl)cccc3Cl)c2)c(C#N)c(-c2cccc([N+](=O)[O-])c2)n1", "condition not met"),
    ("CCCCn1c(-c2ccc(C(=O)O/N=C(\\N)c3ccc4c(c3)OCO4)cc2)nc(-c2ccccc2)c1-c1ccccc1", "condition not met"),
    ("O=C1CC(=NCC(=O)n2c(-c3ccccc3)nc3ccccc32)NN1", "condition not met"),
    ("CN(C)S(=O)(=O)c1ccc(S(=O)(=O)Nc2cccc(Cl)c2N2CCCCC2)cc1", "condition not met"),
    ("Cc1ccc2c(c1)C(=O)/C(=C/c1cccc(OCC(=O)c3ccc(Cl)cc3)c1)CS2", "condition not met"),
    ("COc1ccc(-c2nnc(SCC(=O)c3ccc(Cl)cc3)o2)cc1", "condition not met"),
    ("Cn1c(NCCc2ccc(O)c(O)c2)nc2c1c(=O)n(Cc1ccc(Cl)c(Cl)c1)c(=O)n2C", "condition not met"),
    ("CN(C)c1ccc(N=Nc2ccccn2)c(O)c1", "condition met"),
    ("Nc1ccc(-c2cc3c(NCc4ccccc4)ncnc3s2)cc1", "condition not met"),
    ("COc1ccc(/C=C/c2nc(-c3n[nH]c(=O)n3-c3ccccc3)c3ccccc3n2)cc1", "condition not met"),
    ("O=C(Nc1ccc(Cl)cc1)c1cc2cc(F)ccc2cc1O", "condition met"),
    ("CCn1c(O)c(/C=N/NC(=O)C(C)c2ccc(CC(C)C)cc2)sc1=S (centres undefined)", "condition met"),
    ("CCOC(=O)c1c(C(=O)OCC)c2cc(-c3ccn4c(C(=O)c5ccccc5)c(C(=O)OCC)c(C(=O)OCC)c4c3)ccn2c1C(=O)c1ccccc1", "condition not met"),
    ("COc1ccc(/C=C2\\Oc3cc(OCCCCN4CCCC4)ccc3C2=O)cc1", "condition not met"),
]
